Data export: IC50 values recorded with Acetylcholinesterase (Homo sapiens, UniProt P22303).
Sequence (P22303 whole entry): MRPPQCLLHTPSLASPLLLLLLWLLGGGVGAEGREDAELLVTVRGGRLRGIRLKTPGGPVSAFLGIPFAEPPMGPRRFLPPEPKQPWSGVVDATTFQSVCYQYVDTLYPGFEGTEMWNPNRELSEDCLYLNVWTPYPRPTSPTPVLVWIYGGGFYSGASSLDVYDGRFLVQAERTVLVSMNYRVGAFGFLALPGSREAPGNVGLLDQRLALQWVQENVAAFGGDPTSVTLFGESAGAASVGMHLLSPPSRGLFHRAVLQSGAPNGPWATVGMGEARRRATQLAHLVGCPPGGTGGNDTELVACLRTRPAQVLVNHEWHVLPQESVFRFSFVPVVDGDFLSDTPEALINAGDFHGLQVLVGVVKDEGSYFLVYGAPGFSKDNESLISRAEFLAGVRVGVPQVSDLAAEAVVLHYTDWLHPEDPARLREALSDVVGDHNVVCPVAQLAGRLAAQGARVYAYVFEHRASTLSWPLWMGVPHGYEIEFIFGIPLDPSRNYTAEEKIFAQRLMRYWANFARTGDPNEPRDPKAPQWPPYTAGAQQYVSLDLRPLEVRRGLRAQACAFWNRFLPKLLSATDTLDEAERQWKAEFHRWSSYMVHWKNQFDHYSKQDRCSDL

Example entries and their recorded answers appear below.
• COc1cc2[se]n(CCCC3CCN(Cc4ccccc4)CC3)c(=O)c2cc1OC = 231 nM
• COc1cc2[se]n(CCCCC3CCN(Cc4ccccc4)CC3)c(=O)c2cc1OC = 103 nM
• COc1cc2[se]n(CCC3CCN(Cc4ccccc4)CC3)c(=O)c2cc1OC = 97 nM

# next compound below
Request: IC50, test system Acetylcholinesterase (Homo sapiens, UniProt P22303), entry COc1cc2c(cc1OC)[Se](=O)N(CCC1CCN(Cc3ccccc3)CC1)C2=O (centres undefined)
163 nM
